meta.source: patent US9187428B2

# assay system: adenosine A2b receptor (Homo sapiens (Human))
# Sequence (P29275 whole entry): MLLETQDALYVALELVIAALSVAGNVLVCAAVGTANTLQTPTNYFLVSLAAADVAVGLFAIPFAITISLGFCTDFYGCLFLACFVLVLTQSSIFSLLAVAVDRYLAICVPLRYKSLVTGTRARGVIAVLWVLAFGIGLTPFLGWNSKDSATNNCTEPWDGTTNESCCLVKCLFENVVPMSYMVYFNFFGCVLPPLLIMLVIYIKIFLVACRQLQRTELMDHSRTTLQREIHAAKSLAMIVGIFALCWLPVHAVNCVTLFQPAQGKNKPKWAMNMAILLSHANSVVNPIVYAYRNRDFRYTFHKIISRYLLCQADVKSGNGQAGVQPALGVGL
# test summary: Indirect determination of adenosine agonism by gene expression (luciferase reporter), A2b cells
# setup conditions: CHO cells stably transfected with adenosine A2b receptor, 50% of maximum stimulation
Structures can show the parent of a compound that is named as a salt.
measured metric: pEC50
One number for each entry, as −log10 of the molar value.

CNC(=O)c1cccc(C(C)Sc2nc(N)c(C#N)c(-c3ccc(OCCO)cc3)c2C#N)c1 (racemic)
6.58
N#Cc1c(N)nc(SCc2ccnc(C(=O)NC3CC3)c2)c(C#N)c1-c1ccccc1
7.34
N#Cc1c(N)nc(SCc2cccc(C(N)=O)c2)c(C#N)c1-c1ccccc1
8.41
CCOc1ccc(-c2c(C#N)c(N)nc(SCc3ccnc(C(=O)NC)c3)c2C#N)cc1
6.61
CCNC(=O)c1cccc(CSc2nc(N3CCCC3)c(C#N)c(-c3ccc(OCCO)cc3)c2C#N)c1
6.22

Would you kindly look at the next entry?
Given item CNC(=O)c1cc(CSc2nc(N)c(C#N)c(-c3ccc(OCCN)cc3)c2C#N)ccn1 [Example 54, trifluoroacetate] , the value recorded as its pEC50 is 6.77
